Experiment: Single-dose pharmacokinetic study of pitavastatin calcium tablets
Type: in vivo, human (healthy Chinese volunteers)
Conditions: male, human, plasma, oral, 4 mg
measure_name: half-life (h)
Field format: number, assumed h, no unit text.

Look up half-life: O=C(O)C[C@H](O)C[C@H](O)/C=C/c1c(C2CC2)nc2ccccc2c1-c1ccc(F)cc1 [pitavastatin]
8.72

###

Test: Single-dose pharmacokinetic study of pitavastatin calcium tablets
Type: in vivo, human (healthy Chinese volunteers)
Details: both, human, plasma, oral, 4 mg
measure_name: AUC(0-inf) (ng·h/mL)
Field format: number, assumed ng·h/mL, no unit text.

Look up AUC(0-inf): O=C(O)C[C@H](O)C[C@H](O)/C=C/c1c(C2CC2)nc2ccccc2c1-c1ccc(F)cc1 [pitavastatin]
828
